Data origin, for the record: patent US20160304556A1

Molecular target: IDH1 R132H (Homo sapiens, UniProt O75874, R132H)
Sequence (O75874 whole entry R132H): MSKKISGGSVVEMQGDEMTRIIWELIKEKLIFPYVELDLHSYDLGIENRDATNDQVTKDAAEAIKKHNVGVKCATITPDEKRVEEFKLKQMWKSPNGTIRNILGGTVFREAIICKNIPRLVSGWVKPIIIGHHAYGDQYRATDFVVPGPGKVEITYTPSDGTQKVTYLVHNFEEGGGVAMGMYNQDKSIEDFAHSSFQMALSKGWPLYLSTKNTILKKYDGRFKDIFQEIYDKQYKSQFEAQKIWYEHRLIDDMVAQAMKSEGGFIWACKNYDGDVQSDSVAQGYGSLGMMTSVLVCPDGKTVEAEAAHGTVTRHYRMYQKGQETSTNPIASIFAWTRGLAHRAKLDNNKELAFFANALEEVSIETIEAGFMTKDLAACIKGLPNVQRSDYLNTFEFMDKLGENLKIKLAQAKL
Test: In vitro NADPH depletion assay for IDH1m R132H inhibitors
Settings: enzyme, diaphorase/resazurin readout, read-out: IDH R132H IC50
parameter: IC50

COC(=O)NCCC(=O)N(c1cccc(F)c1)C(C(=O)NC1CCCCC1)c1ccccc1C (stereo not shown) [Compound 12] ... 100 to 500 nM
O=C(NC1CC(F)(F)C1)[C@@H](c1ccccc1Cl)N(C(=O)[C@@H]1CCN1c1ccccn1)c1cccc(F)c1 (stereo in doubt) [Compound 105] ... 100 to 500 nM
COC(=O)NCC(=O)N(c1cccc(F)c1)C(C(=O)NC1CCC(F)(F)CC1)c1ccccc1Cl (stereo not shown) [Compound 92] ... ≤ 100 nM
COC(=O)N1COC[C@H]1C(=O)N(c1cccc(F)c1)[C@H](C(=O)NC1CC(F)(F)C1)c1ccccc1Cl [Compound 54] ... ≤ 100 nM
CNC(=O)N1CCC[C@@H]1C(=O)N(c1cccc(F)c1)[C@H](C(=O)NC1CCCCC1)c1ccccc1C [Compound 13] ... 500 to 1000 nM

(Q) Please report the recorded IC50 for O=C(NC1CCC(F)(F)CC1)C(c1ccccc1Cl)N(C(=O)Cn1cncn1)c1ccc(F)c(F)c1 (stereo not shown) [Compound 37] .
(A) 100 to 500 nM

(Q) Please report the recorded IC50 for COC(=O)NCC(=O)N(c1cccc(F)c1)C(C(=O)NC1CCC(F)CC1)c1ccccc1Cl (stereo not shown) [Compound 81] .
(A) 100 to 500 nM

====

Biological target: IDH1 R132H (Homo sapiens, UniProt O75874, R132H)
Assay: In vitro NADPH depletion assay for IDH1m R132H inhibitors
Details: enzyme, diaphorase/resazurin readout, read-out: IDH R132H IC50
parameter: IC50

COC(=O)N1CC[C@H]1C(=O)N(c1cccc(F)c1)[C@H](C(=O)NC1CC(F)(F)C1)c1ccccc1Cl ... ≤ 0.1 µM
CC(C)(C)OC(=O)NCC(=O)N(c1cccc(F)c1)C(C(=O)NC1CCC(F)(F)CC1)c1ccccc1Cl (stereo not shown) ... 0.1 to 0.5 µM
O=C(NC1CC(F)(F)C1)[C@H](c1ccccc1Cl)N(C(=O)[C@@H]1CCN1c1ncccn1)c1cccc(F)c1 [Compound 103] ... 1 to 2 µM

(Q) Please report the recorded IC50 for O=C(NC1CCC(F)(F)CC1)C(c1ccccc1Cl)N(C(=O)c1cc2ccccc2[nH]1)c1cccc(F)c1 (stereo not shown) .
(A) 0.5 to 1 µM

(Q) Please report the recorded IC50 for O=C(NC1CC(F)(F)C1)C(c1ccccc1Cl)N(C(=O)CN1CCOC1=O)c1cccc(F)c1 (stereo not shown) .
(A) 0.5 to 1 µM

====

Biological target: IDH1 R132H (Homo sapiens, UniProt O75874, R132H)
Experiment: In vitro NADPH depletion assay for IDH1m R132H inhibitors
Settings: enzyme, diaphorase/resazurin readout, read-out: IDH R132H IC50
pIC50: −log10 of the molar value.
parameter: pIC50

C[C@H]1CC[C@@H](C(=O)N(c2cccc(F)c2)[C@H](C(=O)NC2CC(F)(F)C2)c2ccccc2Cl)N1c1ncccn1 [Compound 113] ... ≥ 7.00
COC(=O)NCC(=O)N(c1cccc(F)c1)C(C(=O)NC1CC(F)(F)C1)c1ccccc1Cl (centres unmarked) [Compound 73] ... 6.30 to 7.00
COCCO[C@@H]1C[C@@H](C(=O)N(c2cccc(F)c2)[C@H](C(=O)NC2CC(F)(F)C2)c2ccccc2Cl)N(C(=O)OC)C1 [Compound 79] ... ≥ 7.00
COC(=O)NCC(=O)N(c1cccc(F)c1)[C@H](C(=O)N[C@H]1CCCC(F)(F)C1)c1ccccc1Cl (single isomer, unassigned) [Compound 94] ... 6.30 to 7.00
Cc1ccccc1[C@@H](C(=O)NC1CCCCC1)N(C(=O)[C@@H]1CCCN1S(C)(=O)=O)c1cccc(F)c1 [Compound 1] ... 6.00 to 6.30
COC(=O)N(C)CC(=O)N(c1cccc(F)c1)C(C(=O)NC1CC(F)(F)C1)c1ccccc1Cl (centres unmarked) [Compound 96] ... ≥ 7.00

(Q) Please report the recorded pIC50 for COC(=O)N[C@@H](CO)C(=O)N(c1cccc(F)c1)[C@@H](C(=O)NC1CCCCC1)c1ccccc1Cl [Compound 85] .
(A) ≥ 7.00

(Q) Please report the recorded pIC50 for Cc1nccn1CC(=O)N(c1cccc2[nH]ncc12)C(C(=O)NC1CCCCC1)c1ccccc1Cl (centres unmarked) [Compound 26] .
(A) 6.30 to 7.00

(Q) Please report the recorded pIC50 for Cc1ccccc1C(C(=O)NC1CC2CC2C1)N(C(=O)CNc1cccnc1F)c1cccc(F)c1 (centres unmarked) [Compound 15] .
(A) 6.30 to 7.00

(Q) Please report the recorded pIC50 for CNC(=O)N1CCCC[C@@H]1C(=O)N(c1cccc(F)c1)[C@H](C(=O)NC1CCCCC1)c1ccccc1C [Compound 3] .
(A) 6.00 to 6.30

(Q) Please report the recorded pIC50 for Cc1nc(Cl)c(Cl)n1CC(=O)N(c1cccc(F)c1)C(C(=O)NC1CC(F)(F)C1)c1ccccc1Cl (centres unmarked) [Compound 87] .
(A) ≥ 7.00
